Biological target: Endothelin-1 receptor (Homo sapiens, UniProt P25101)
Sequence (P25101 whole entry): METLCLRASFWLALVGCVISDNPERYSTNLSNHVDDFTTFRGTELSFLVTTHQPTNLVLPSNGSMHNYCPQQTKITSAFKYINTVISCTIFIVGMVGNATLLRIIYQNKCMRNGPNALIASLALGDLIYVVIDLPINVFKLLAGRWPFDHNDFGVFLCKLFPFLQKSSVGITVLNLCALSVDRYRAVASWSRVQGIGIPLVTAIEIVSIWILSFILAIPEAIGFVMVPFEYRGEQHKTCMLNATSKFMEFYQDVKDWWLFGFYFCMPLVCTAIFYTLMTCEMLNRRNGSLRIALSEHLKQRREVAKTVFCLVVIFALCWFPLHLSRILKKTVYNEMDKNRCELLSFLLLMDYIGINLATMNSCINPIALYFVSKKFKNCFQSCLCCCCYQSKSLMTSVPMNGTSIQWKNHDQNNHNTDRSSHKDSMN
Outcome measure: Ki (nM)
Give the number; nM is assumed, so skip it.

query: # input molecule: CCCOc1ccc2c(c1)[C@@H](c1ccc(OC)cc1OCC(=O)O)[C@H](C(=O)O)[C@H]2c1ccc2c(c1)OCO2 [SB-209670] ; wanted: its Ki
result: 0.2

----------
Assay: Total drug exposure is determined after oral dosing in rats.
Format: ADME, organism-based
Parameters: concentration or dose not given beside the values
Details: rat, in vivo
Outcome measure: AUC (ng·h/mL)
Report as a plain number; the unit ng·h/mL is understood.

query: Record request: AUC value, item CCCCS(=O)(=O)N(CCC)CCN1C[C@H](c2ccc3c(c2)OCO3)[C@@H](C(=O)O)[C@@H]1c1ccc(OC)c(F)c1 (stereo in doubt; 15a)
result: 3700
